assay: Intrinsic clearance in human liver microsomes assessed per mg protein at 1 uM after 30 mins in presence of NADPH by LC-MS/MS analysis; type: ADME, microsome; conditions: read-out: CLH
RECORDED METRIC: microsomal CLint at 1 µM (µL/min/mg)

Example results:
MOLECULE: Cc1cc(N(C)C(N)=O)cc(C)c1CCS(=O)(=O)N1CCC2(CC1)N=C([C@H]1CC[C@H](C)CC1)NC2=O
READOUT UNITS: µL/min/mg
microsomal CLint at 1 µM: 45
--
MOLECULE: Cc1ccccc1CCS(=O)(=O)N1CCC2(CC1)N=C(C1CCCCC1)NC2=O
READOUT UNITS: µL/min/mg
microsomal CLint at 1 µM: 100
--
MOLECULE: O=C1NC(C2CCCCC2)=NC12CCN(S(=O)(=O)CCc1cccc3ccccc13)CC2
READOUT UNITS: µL/min/mg
microsomal CLint at 1 µM: 300

A = CC(=O)Nc1cc(C)c(CCS(=O)(=O)N2CCC3(CC2)N=C(C2CCCCC2)NC3=O)c(C)c1
B = Cc1cc(N2CCNC2=O)cc(C)c1CCS(=O)(=O)N1CCC2(CC1)N=C(C1CCCCC1)NC2=O
Inquiry: Given the listed items, does A or B have the lesser reported microsomal CLint at 1 µM? Give the chosen item's label as your response.
Reply text: A

1 = Cc1cc(N(C)C(N)=O)cc(C)c1CCS(=O)(=O)N1CCC2(CC1)N=C(C1CCCCC1)NC2=O
2 = CC(=O)Nc1ccc(CCS(=O)(=O)N2CCC3(CC2)N=C(C2CCCCC2)NC3=O)c(C)c1
Inquiry: // max by microsomal CLint at 1 µM over [ 1 , 2 ] Respond using the label that marks the chosen record.
Reply text: 2
(2: 46 µL/min/mg, 1: 23 µL/min/mg)

These data points were gathered from ChEMBL document CHEMBL4190402.
